# target or system: recombinant human CK2 (Homo sapiens, UniProt P68400)
# Construct: purchased Upstate
# Sequence (P68400 whole entry): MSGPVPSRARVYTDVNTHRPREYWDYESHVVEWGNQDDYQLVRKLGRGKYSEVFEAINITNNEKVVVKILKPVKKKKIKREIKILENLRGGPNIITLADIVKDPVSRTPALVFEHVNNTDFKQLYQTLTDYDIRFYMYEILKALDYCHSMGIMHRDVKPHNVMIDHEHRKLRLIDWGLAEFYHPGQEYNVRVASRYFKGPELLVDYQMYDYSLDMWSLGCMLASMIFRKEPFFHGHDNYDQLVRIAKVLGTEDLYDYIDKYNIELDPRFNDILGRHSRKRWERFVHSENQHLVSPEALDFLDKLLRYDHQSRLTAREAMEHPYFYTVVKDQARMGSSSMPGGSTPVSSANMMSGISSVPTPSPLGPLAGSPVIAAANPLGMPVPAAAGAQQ
# Sequence (P67870 whole entry partner): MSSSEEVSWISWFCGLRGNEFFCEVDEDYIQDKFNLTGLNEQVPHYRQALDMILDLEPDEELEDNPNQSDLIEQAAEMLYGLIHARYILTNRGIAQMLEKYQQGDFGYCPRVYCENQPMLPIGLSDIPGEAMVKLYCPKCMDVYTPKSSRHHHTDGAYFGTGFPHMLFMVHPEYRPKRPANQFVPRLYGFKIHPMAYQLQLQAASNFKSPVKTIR
# procedure text: CK2 assay (cell-free, 33P-ATP filter plate)
# Type: biochemical
# conditions: Table 3
pIC50: −log10 of the molar value.
assay metric: pIC50

O=C1NC(=O)/C(=C\c2ccc(-c3ccc(C(=O)O)cc3)o2)N1 = 6.78
CN1CCCN(C(=O)c2cccc(-c3ccc(/C=C4\C(=O)NC(=O)N4C)o3)c2)CC1 = 5.74
CN1C(=O)NC(=O)/C1=C\c1ccc(-c2cccc(C(=O)O)c2)o1 = 5.84

I. O=C1NC(=O)/C(=C\c2ccc(-c3cccc(C(=O)O)c3)o2)N1
II. NS(=O)(=O)c1ccc(-c2ccc(/C=C3\NC(=O)NC3=O)o2)cc1
III. CN1C(=O)NC(=O)/C1=C\c1ccc(-c2ccc(C(=O)O)cc2)o1
rank_up(items): orders items by reported pIC50 in ascending numerical order. Return the labels ranked in the requested order, please. I, II, III
(I: 5.69, II: 6.34, III: 6.67)

Recorded values, source patent US20100331315A1.
